System: HCC 2998
Experiment: NCI tumour cell line growth inhibition, 48 h
Calls of active or inactive are those of the source. Cut-off read from the data, not from the text of the source: active = GI50 up to about 1.1 µM and inactive = higher.
READOUT_NAME: GI50

The cases that follow already have their GI50 on record.
C[C@@H]1O[C@]2(O)[C@@H]3CCCN3S(=O)(=O)CCN2C1=O    > 100 µM (inactive)
C#CCOC(=O)C(=[N+]=[N-])C(=O)CC(C)C    > 10 µM (inactive)

// moving on: another record for GI50
Answer with the recorded GI50 for the compound listed here: O=C(O)c1ccccc1C1c2ccc(Cl)cc2Oc2cc(Cl)ccc21
> 100 µM (inactive)

====

System: HT-29
Experiment: NCI tumour cell line growth inhibition, 48 h
Calls of active or inactive are those of the source. Cut-off read from the data, not from the text of the source: active = GI50 up to about 1.1 µM and inactive = higher.
Parameter GI50: see the listing below.

The cases that follow already have their GI50 on record.
CCc1nnc(CC)n1NCCCC(=O)O    > 100 µM (inactive)
N#CCC(=O)N/N=C1\C(=O)N(c2ccc(Cl)cc2)C(=O)C(=O)C1c1nc2ccccc2o1 (stereo not given)    > 100 µM (inactive)
COc1ccc2nc(-c3ccc(O)cc3)cn2c1    46.6 µM (inactive)
O=C(CC(=O)c1cccc2ccccc12)C(=O)Nc1ccc(Cl)cc1    > 100 µM (inactive)
FC(F)(F)C1(C(F)(F)F)C2CCC3(CC(F)(F)C(F)(F)S3)C1C2 (stereo not given)    29 µM (inactive)

Answer with the recorded GI50 for the compound listed here: Cc1n[nH]c(C(F)(F)F)c1/N=N/N(C)C
4.98 µM (inactive)

Answer with the recorded GI50 for the compound listed here: O=C(CSCC(=O)N/N=C/c1ccccc1)N/N=C\c1ccccc1
> 100 µM (inactive)

Answer with the recorded GI50 for the compound listed here: CC(C)C1=CC(=O)[C@@](C)(C2[C@H](O)C[C@@]3(C)[C@@H]4CC=C5[C@@H](CC[C@@H](OC6OCC(O)C(O)C6OC6OC(C)C(O)C(O)C6O)C5(C)C)[C@]4(C)C(=O)C[C@]23C)O1 (stereo not given in full)
> 100 µM (inactive)

Answer with the recorded GI50 for the compound listed here: O=C1c2n[nH]nc2C(=O)c2n[nH]nc21
> 100 µM (inactive)

Answer with the recorded GI50 for the compound listed here: N#CC(O)CCOCc1ccccc1 (stereo not given)
38.6 µM (inactive)

====

System: SR
Experiment: NCI tumour cell line growth inhibition, 48 h
Active and inactive are the calls of the source. No stated cut-off is given here; in the data, active = GI50 up to about 1.1 µM and inactive = higher.
Hello, when you answer, please use one of the following outcomes: active, inactive

Please review the following examples before continuing.
Cc1ccc(C(=O)Cn2c(C(=O)/C=C/c3cccs3)nc3ccccc32)cc1    inactive
Nc1nc2cc(Cl)ccc2n1N    inactive

Kindly provide the recorded test outcome for the following compound: C=C(Cl)C(=C)CCC(Cl)C(C)C (centres undefined)
inactive

Kindly provide the recorded test outcome for the following compound: CN(C)CC(/C(Cc1ccccc1)=N\NC(=O)C[n+]1ccccc1)c1ccccc1 (centres undefined)
inactive

Kindly provide the recorded test outcome for the following compound: O=C1/C(=C/c2ccccc2)CN(C(=O)C(Cl)(Cl)Cl)C/C1=C\c1ccccc1
inactive

Kindly provide the recorded test outcome for the following compound: COc1ccc2nc(-c3ccc(O)cc3)cn2c1
inactive

Kindly provide the recorded test outcome for the following compound: COC(=O)[C@]12CC[C@H]3CN(C(=O)OCc4ccccc4)[C@H]([C@H]31)[C@H](c1ccco1)N2
inactive

From: ChEMBL document CHEMBL1201862
